The measurements presented in this section are drawn from paper PMC9482650.

Biological target: MAGI3_2, Q5TCQ9
Sequence (Q5TCQ9 398-503): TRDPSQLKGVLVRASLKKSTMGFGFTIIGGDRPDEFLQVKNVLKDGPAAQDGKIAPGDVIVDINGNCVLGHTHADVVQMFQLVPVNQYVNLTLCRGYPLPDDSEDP
Test: holdup assay
Set-up: key: below the threshold = too weak to quantify, mostly under pKd 3.1 to 4
Settings: plain residues with an end cap or a label only (N-terminal biotin on a linker: ttds)
Exercise: for every item that follows, state its recorded pKd.
Provide a numeric answer; units are not to be included.

QUERY: Find the recorded pKd belonging to QRQARSETLV [HPV59-E6, Q81964] and report it.
RESULT: 6.07

QUERY: Field request: pKd | item: VDFPPKESSL [ACVR2A, P27037]
RESULT: 3.3

QUERY: Which pKd is reported for this binder? PRVKPQRSKV [PPP1R13L, Q8WUF5]
RESULT: 4.07

QUERY: Please report the recorded pKd for RLPKIKETTV [FRMPD4, Q14CM0] .
RESULT: 5.27

QUERY: Reported pKd for RHTTSTETAV [HPV30-E6, P36809] : what is it?
RESULT: 5.36

QUERY: I am curious: what pKd value has been reported for PVRVCEETSL [OTULIN, Q96BN8] ?
RESULT: 3.71

QUERY: Need pKd, item EVVHTPETSV [SLC16A3, O15427]
RESULT: 4.33

QUERY: Query: pKd; subject: SKPTRRETEV [HPV35-E6, P27228]
RESULT: 5.39

QUERY: Item RLQRRRETQV [HPV18-E6, P06463] has what recorded pKd?
RESULT: 5.56

QUERY: // lookup pKd for SSLQSLETSV [ATP2B4, P23634]
RESULT: 4.79

QUERY: Query (binder): DKDPHSETAL [TMIGD1, Q6UXZ0] ; field requested: pKd
RESULT: 4.19

QUERY: Entry under review: RPLPRKVSQL [DOCK4, Q8N1I0] . Reported pKd?
RESULT: 4.69

QUERY: I'd like to know its pKd. The binder in question is EMDRRPATVV [PLCB4, Q15147]
RESULT: 4.65

QUERY: Which pKd is listed for SGSRPSATVV [HPV73-E6, Q82005] ?
RESULT: 4.91
